Flag rule - boiling point less than 200 °C flags condition met; the remaining entries get condition not met.

>>> category("O=[N+]([O-])c1cccc([N+](=O)[O-])c1Cl")
"condition not met"
>>> category("CC1(C)CCCC(=O)C1")
"condition met"
>>> category("CCc1cc(C)cc(C)c1")
"condition met"
>>> category("Cc1c(F)c(F)c(F)c(F)c1F")
"condition met"
>>> category("COBOC")
"condition met"

* * *

Flag rule - boiling point less than 200 °C flags YES; the remaining entries get NO.

>>> category("CCCCCCC(O)CCCC (stereo not given)")
"NO"
>>> category("Ic1ccccc1I")
"NO"
>>> category("CC(C)c1cc(C(C)C)c(C(C)C)cc1C(C)C")
"NO"
>>> category("C=CCCCCCC=C")
"YES"
>>> category("Clc1cc(Cl)c(Cl)nc1Cl")
"NO"
>>> category("O=C(c1ccccc1O)c1ccccc1O")
"NO"
>>> category("CNN")
"YES"
>>> category("O=C(O)c1ccc2c(c1)C(=O)OC2=O")
"NO"
>>> category("C[Si](C)(C)O[Si](C)(C)O[Si](C)(C)O[Si](C)(C)O[Si](C)(C)O[Si](C)(C)O[Si](C)(C)O[Si](C)(C)O[Si](C)(C)O[Si](C)(C)O[Si](C)(C)C")
"NO"
>>> category("NCCNCCNCCNCCN")
"NO"

* * *

# log10 vapour pressure (mmHg) per record follows
parameter: log10 vapour pressure (mmHg)

>>> quantitative_result("CCCC")
3.26
>>> quantitative_result("CCCCC(C)CC (stereo unspecified)")
1.29
>>> quantitative_result("NCCO")
-0.394
>>> quantitative_result("CCOC(=O)C(=O)Cl")
0.882
>>> quantitative_result("CC(O)C(O)CO (stereo unspecified)")
-2.47
>>> quantitative_result("COC(=O)C(C)N(C(=O)c1ccco1)c1c(C)cccc1C (stereo unspecified)")
-6.28
>>> quantitative_result("CCCCCCCCCCCCCl")
-2.2
>>> quantitative_result("CCCCCCCCCCCCCCCCCCCCCCCCCCCCC")
-9.37
>>> quantitative_result("CC(C)OC(=O)CCl")
0.613
>>> quantitative_result("CC(C)N(C(=O)SCC(Cl)=CCl)C(C)C")
-3.82
>>> quantitative_result("C#CC(C)(C)O")
1.2
>>> quantitative_result("c1ccc(CNCc2ccccc2)cc1")
-3.1
>>> quantitative_result("C=C=O")
4.02
>>> quantitative_result("C1OC1C1CO1 (stereo unspecified)")
1.59
>>> quantitative_result("CCCCCCCCC(=O)O")
-2.78
>>> quantitative_result("N#CCC=CCC#N")
-2.16
>>> quantitative_result("O=c1cc[nH]c(=O)[nH]1")
-4.33
>>> quantitative_result("CCOCCOCCOCCO")
-2
>>> quantitative_result("CCCCSSCCCC")
-1.2
>>> quantitative_result("CCNc1nc(NC(C)(C)C)nc(OC)n1")
-5.7
>>> quantitative_result("COCC(C)OCC(C)OCC(C)O (stereo unspecified)")
-1.7
>>> quantitative_result("C=C1CCCCC1")
1.6
>>> quantitative_result("CCCCC(=O)CC")
0.415
>>> quantitative_result("CC(F)(F)C(F)(F)F")
3.54
>>> quantitative_result("C=CCc1ccc(O)c(OC)c1")
-1.65
>>> quantitative_result("C=COC")
3.12
>>> quantitative_result("CC(Cl)CCl (stereo unspecified)")
1.73
>>> quantitative_result("CC[Si](CC)(CC)CC")
0.699
>>> quantitative_result("CCOC(=O)C(C)O (stereo unspecified)")
0.574
>>> quantitative_result("Clc1ccc(Oc2ccccc2)cc1Cl")
-3.19
>>> quantitative_result("CCC(CC)(CC)CC")
0.863

* * *

Flag rule - log10 vapour pressure (mmHg) less than -1 flags TRUE; the remaining entries get FALSE.

>>> category("CCN(CC)N=O")
"FALSE"
>>> category("C=CCCCCCCCCC(=O)O")
"TRUE"
>>> category("CC(C#N)CCC#N (stereo unspecified)")
"TRUE"
>>> category("CC1CCC(C(C)C)C(O)C1 (stereo unspecified)")
"TRUE"
>>> category("Clc1ccc(-c2ccccc2Cl)cc1Cl")
"TRUE"
>>> category("CC(=O)OC(C)C")
"FALSE"

* * *

Flag rule - log10 Henry constant (atm·m³/mol) less than -4 flags TRUE; the remaining entries get FALSE.

>>> category("CCC(=O)OC")
"FALSE"
>>> category("Clc1cc(Cl)c(Cl)c(-c2cc(Cl)c(Cl)c(Cl)c2Cl)c1")
"TRUE"
>>> category("CCCC=CC=O")
"TRUE"
>>> category("FC(Cl)(Cl)Cl")
"FALSE"

* * *

Flag rule - boiling point less than 100 °C flags condition met; the remaining entries get condition not met.

>>> category("CCCCCCC[N+](=O)[O-]")
"condition not met"
>>> category("CCCCCC(C)CC (stereo not drawn)")
"condition not met"
>>> category("CC(C)(C)O")
"condition met"
>>> category("C#CCNC")
"condition met"
>>> category("CCCNCCC")
"condition not met"
>>> category("CCOC(=O)C(F)Cl (stereo not drawn)")
"condition not met"
>>> category("O=[N+]([O-])c1ccc2ccccc2c1")
"condition not met"
>>> category("Clc1ccc(-c2ccccc2)cc1")
"condition not met"
>>> category("C=CI")
"condition met"
>>> category("CCN(CC)c1cccc(C)c1")
"condition not met"
>>> category("CC(Cl)C(C)(C)O (stereo not drawn)")
"condition not met"
>>> category("CCc1cccc(C)c1")
"condition not met"
>>> category("COc1ccccc1")
"condition not met"
>>> category("Fc1cccc(Br)c1")
"condition not met"
>>> category("c1ccc2c(c1)CCCC2")
"condition not met"
>>> category("COC(=O)C1=CCCN(C)C1")
"condition not met"
>>> category("OCC(O)c1ccccc1 (stereo not drawn)")
"condition not met"
>>> category("CCCCC(CC)COC(=O)CCCCC(=O)OCC(CC)CCCC (stereo not drawn)")
"condition not met"
>>> category("CC(C)(O)C(F)(F)F")
"condition met"
>>> category("CCC1(C)CCCC1")
"condition not met"
>>> category("CCC(CC)(CO)CO")
"condition not met"
>>> category("Cc1cc(C(C)(C)C)cc(C(C)(C)C)c1O")
"condition not met"
>>> category("COB(OC)OC")
"condition met"
>>> category("ClCI")
"condition not met"
>>> category("FC(F)=C(F)C(F)(F)C(F)(F)C(F)(F)C(F)(F)F")
"condition met"
>>> category("CC(O)CBr (stereo not drawn)")
"condition not met"
>>> category("COC(CCl)OC")
"condition not met"
>>> category("c1cncc([C@@H]2CCCCN2)c1")
"condition not met"
>>> category("O=C1C=CC(=O)O1")
"condition not met"
>>> category("CCOC(=O)c1cccs1")
"condition not met"
>>> category("BrCCCCCCCCBr")
"condition not met"
>>> category("C=CC(O)CCl (stereo not drawn)")
"condition not met"

* * *

# boiling point per record follows
parameter: boiling point

>>> result("Cc1cccc(C)c1O")
"201 °C"
>>> result("CCOC(=O)C(C)C(=O)OCC")
"201 °C"
>>> result("CC(C)c1ccc(Cl)cc1")
"198 °C"
>>> result("Cc1ccccc1CBr")
"217 °C"
>>> result("CCC(C)(CC(=O)O)CC(=O)O")
"261 °C"
>>> result("CCOC(=O)c1cccc(C(=O)OCC)c1")
"302 °C"
>>> result("c1ccc(CCc2ccccn2)cc1")
"289 °C"
>>> result("CC1CC=CC1")
"65.7 °C"
>>> result("CCCC=CC(C)C")
"112 °C"
>>> result("CCCCCCCCCCCC1CCCC1")
"296 °C"
>>> result("CCCCCCCCCCCCCCCCc1ccccc1")
"385 °C"
>>> result("CC(C)(C)OC(=O)CCl")
"150 °C"
>>> result("CC(=O)Cc1ccccc1")
"216 °C"
>>> result("FC(F)(F)C(F)(F)C(F)(F)C(F)(C(F)(F)F)C(F)(F)F")
"57.6 °C"

* * *

# boiling point per record follows
parameter: boiling point (°C)

>>> quantitative_result("CSCCSC")
183
>>> quantitative_result("c1ccc(Cn2cccc2)cc1")
247
>>> quantitative_result("CN=NC")
1.5
>>> quantitative_result("CCCCCC(C)O (configuration not stated)")
159
>>> quantitative_result("c1ccc2c(c1)COC2")
192
>>> quantitative_result("CC(C)COC(=O)CC(C)C")
168
>>> quantitative_result("C=C1CCCC1")
75.5

* * *

Flag rule - melting point less than 20 °C flags fulfilled; the remaining entries get not fulfilled.

>>> category("Cn1ccnc1")
"fulfilled"
>>> category("CCc1cccc(N)c1")
"fulfilled"
>>> category("O=C(O)c1cc[n+]([O-])cc1")
"not fulfilled"
>>> category("Cc1c(O)cc2c(c1C)OC(C)(CCCC(C)CCCC(C)CCCC(C)C)CC2 (centres undefined)")
"fulfilled"
>>> category("CC(Br)CCCBr (centres undefined)")
"fulfilled"
>>> category("Brc1cc(Br)c(Br)s1")
"not fulfilled"
>>> category("CCC1(CC)C(=O)CCNC1=O")
"not fulfilled"
>>> category("O=C1c2ccccc2C(=O)C1C(=O)C(c1ccccc1)c1ccc(Cl)cc1 (centres undefined)")
"not fulfilled"
>>> category("Fc1c(F)c(F)c(Br)c(F)c1F")
"fulfilled"
>>> category("O=C(c1ccccc1)c1ccncc1")
"not fulfilled"
>>> category("COc1ccc(N)cc1N")
"not fulfilled"
>>> category("CCCCCCC(=O)CC")
"fulfilled"
>>> category("CCOc1ccc2nc(S)sc2c1")
"not fulfilled"
>>> category("O=CC(Br)(Br)Br")
"fulfilled"
>>> category("CC=Cc1ccc2c(c1)OCO2")
"fulfilled"
>>> category("c1ccc(Sc2ccccc2)cc1")
"fulfilled"
>>> category("O=C1CCc2ccccc2O1")
"not fulfilled"
>>> category("CCCC(O)CO (centres undefined)")
"not fulfilled"
>>> category("C=CCCC(=C)C")
"fulfilled"
>>> category("O=C(O)CCCCCCCCCCO")
"not fulfilled"
>>> category("COC(=O)[C@]12OC[C@]34[C@H]([C@@H](O)[C@@H]1O)[C@@]1(C)CC(=O)C(O)=C(C)[C@@H]1C[C@H]3OC(=O)[C@H](OC(=O)/C=C(\\C)C(C)C)[C@@H]24")
"not fulfilled"
>>> category("CCCC=O")
"fulfilled"
>>> category("Nc1ncnc2c1ncn2[C@@H]1O[C@H](CO)[C@@H](O)[C@H]1O")
"not fulfilled"

From: the OPERA property sets (Mansouri et al. 2018)
